Literature roundup of High affinity nerve growth factor receptor (Homo sapiens) data, read-out IC50.

Some compounds with recorded IC50:
{"columns": ["structureSmilesString", "measuredOn", "IC50"],
 "data": [
  ["COc1cc2nccc(Oc3ccc(NC(=O)c4cn(C(C)C)nc(-c5ccc(F)cc5)c4=O)nc3)c2cc1OC", "High affinity nerve growth factor receptor (Homo sapiens)", "5 nM"],
  ["COCCN1C[C@@H](NC(=O)Nc2c(Br)c(-c3cnn(C)c3)nn2-c2ccccc2)[C@H](c2ccc(F)c(F)c2)C1", "High affinity nerve growth factor receptor (Homo sapiens)", "< 100 nM"],
  ["COCCN1C[C@@H](NC(=O)Nc2c(Br)c(-c3cnn(C)c3)nn2C)[C@H](c2ccc(F)c(F)c2)C1", "High affinity nerve growth factor receptor (Homo sapiens)", "100 to 1000 nM"],
  ["COCCN1C[C@@H](NC(=O)Nc2cc(OC)cnc2-c2ccccc2)[C@H](c2ccc(F)c(F)c2)C1", "High affinity nerve growth factor receptor (Homo sapiens)", "< 100 nM"],
  ["Cc1nc(-c2ccccc2)c(NC(=O)Nc2c(C)c(-c3cnn(C)c3)nn2-c2ccccc2)o1", "High affinity nerve growth factor receptor (Homo sapiens)", "100 to 1000 nM"]
]}

Request: IC50, test system High affinity nerve growth factor receptor (Homo sapiens), entry "O=C(c1ccc(NC2CCC(F)(F)CC2)nc1F)c1c[nH]c2ncnc(NCC(F)(F)F)c12"
< 100 nM

Same again, this time with "Cc1cc(Nc2nc3c(cc2F)ncn3[C@@H](C)c2ccc(F)cn2)n[nH]1"
21 nM

---

Literature roundup of High affinity nerve growth factor receptor (Homo sapiens, UniProt P04629) data, read-out pIC50.
pIC50: −log10 of the molar value.

Some compounds with recorded pIC50:
{"columns": ["structureSmilesString", "pIC50"],
 "data": [
  ["COCCN1C[C@@H](n2cc(F)c(F)c2)[C@H](NC(=O)Nc2c(C)c(-c3cnc4c(c3)COC4)nn2-c2ccccc2)C1", 9.80],
  ["COCCOc1cc(Cl)ccc1NC(=O)Nc1c(C)c(-c2cnn(C)c2)nn1-c1ccccc1", "6.00 to 7.00"],
  ["C[C@@H]1CCn2nncc2[C@H]2CCCN2c2ccn3ncc(c3n2)C(=O)N1", "< 6.00"],
  ["COc1ccc(Nc2ccc(C(=O)c3c[nH]c4ncnc(NC5CCC5)c34)c(F)n2)cn1", "> 8.00"],
  ["O=C(Nc1ccc2ncccc2c1)c1coc2c1C(=O)NCC2", 6.95]
]}

Data request, read-out pIC50, for "Cn1cc(C(=O)Nc2cc(F)c(Oc3ccnc4ccc5c(c34)OCCO5)cc2Cl)c(=O)n(-c2ccc(F)cc2)c1=O"
6.30 to 7.30

Same again, this time with "COc1cc(CNc2ccc(Cc3c[nH]c4ncncc34)c(F)n2)cc(OC)c1"
≥ 5.00

Same again, this time with "CCOc1nc(N2CCN(C(C)=O)CC2)ccc1NC(=O)c1coc2c1C(=O)N(CC(C)(C)O)CC2"
8.22

---

Literature roundup of UniProtKB P04629 data, read-out pIC50.
pIC50: −log10 of the molar value.

{"columns": ["molecule", "result"],
 "data": [
  ["COc1cc(Cc2c[nH]c3ncccc23)c(F)cc1OCc1nc2ccccc2[nH]1", "≥ 5.00"],
  ["COCCN1C[C@@H](NC(=O)Nc2c(C)c(-c3cnc(N(C)C)nc3)nn2-c2ccccc2)[C@H](c2ccc(F)cc2)C1", "> 7.00"]
]}

Data request, read-out pIC50, for "CCc1ccc(Nc2ccc(C(=O)c3c[nH]c4ncnc(NC)c34)c(F)n2)cn1"
> 8.00

Same again, this time with "COCCN1C[C@@H](NC(=O)Nc2c3ccccc3nn2-c2ccccc2)[C@H](c2ccccc2)C1"
> 7.00
